I'd appreciate it if you could supply Percent Effect values for the items below.
- Tested on: Wolbachia pipientis
- assay.comment: Anti-Wolbachia Cell-Based Screen
- Assay type: functional
- Parameters: scale not given: in the data most compounds retested in dose-response had high values
- details: 5 µM
Hit rate of the full screen: of about 48,000 compounds, about 13,000 (27%) showed an effect of 50% or more. This is one part of the list.
Unit % implied. Number only.

Task: # get_value(readout='Percent Effect', item= COc1ccc(CN2C[C@@H](OCc3csc(C)n3)[C@H]3COC[C@H]32)cc1.O=C(O)C(F)(F)F )
Output: -4.618

Task: # get_value(readout='Percent Effect', item= COC(=O)[C@@H]1CN(C(=O)NC(C)C)CCN1S(=O)(=O)c1ccccc1 )
Output: -0.3484

Task: # get_value(readout='Percent Effect', item= Cc1noc(C)c1C(=O)NCc1cc[nH]n1 )
Output: -8.617

Task: # get_value(readout='Percent Effect', item= CN(C)C(=O)N1CCN(c2ccc(Cl)nn2)C(=O)C1 )
Output: 97.53

Task: # get_value(readout='Percent Effect', item= Cc1c(-c2ccccc2)ncn1CC(c1cccnc1)N1CCOCC1 (stereo not given) )
Output: 2.3

Task: # get_value(readout='Percent Effect', item= CC(C)NC(=O)N1CCN(c2ccc(Cl)nn2)C(=O)C1 )
Output: 110.8

Task: # get_value(readout='Percent Effect', item= O=C(O)C(F)(F)F.c1cc(CN2C[C@H](OCC3CCOCC3)[C@H]3COC[C@H]32)cs1 )
Output: 93.96

Task: # get_value(readout='Percent Effect', item= Cc1ccc2cc(C(=O)N3CCN(C(=O)N(C)C)CC3)ccc2n1 )
Output: 1.001

Task: # get_value(readout='Percent Effect', item= O=C(O)C(F)(F)F.c1cc(CN2C[C@H](OCC3CCOCC3)[C@H]3COC[C@H]32)co1 )
Output: 84.18

Task: # get_value(readout='Percent Effect', item= FC(F)C(F)(F)COCc1ncnn1-c1ccc2c(c1)OCO2 )
Output: -0.1872

====

- System: Wolbachia pipientis
- assay.comment: Anti-Wolbachia Cell-Based Screen
- Assay type: functional
- Design: scale not given: in the data most compounds retested in dose-response had high values
- details: 5 µM
Among all 48,000 compounds or so, about 13,000 (27%) showed an effect of 50% or more. This is one part of the list.
I'd appreciate it if you could supply Percent Effect values for the items below.
Unit % implied. Number only.

Task: # get_value(readout='Percent Effect', item= Cc1cccc(NC(=O)c2ccc(-n3cncn3)nn2)n1 )
Output: -9.734

Task: # get_value(readout='Percent Effect', item= Cc1ccnc(NC(=O)c2c(C)oc(C)c2C)c1 )
Output: 13.28

Task: # get_value(readout='Percent Effect', item= CC(C)C(=O)N1CCN(Cc2ccccn2)CC2(CC(=O)N(C)C2)C1.O=C(O)C(F)(F)F.O=C(O)C(F)(F)F (stereo unspecified) )
Output: 98.24

Task: # get_value(readout='Percent Effect', item= Cc1noc(C)c1-c1n[nH]c2c1CN(S(=O)(=O)c1ccsc1)CC2 )
Output: 10.76

Task: # get_value(readout='Percent Effect', item= COc1cccc(CC2CCCN2CCCO)c1 (stereo unspecified) )
Output: 13.01

Task: # get_value(readout='Percent Effect', item= CCN(Cc1ccc2c(c1)OCO2)C(=O)c1ccc(=O)n(C)c1 )
Output: -0.5548

Task: # get_value(readout='Percent Effect', item= CC(=O)Nc1nc(C(=O)NC(C)c2cccnc2)cs1 (stereo unspecified) )
Output: -4.684

Task: # get_value(readout='Percent Effect', item= Cc1cccc(COC[C@@]23CCC[C@@H]2CN(S(=O)(=O)N(C)C)C3)n1.O=C(O)C(F)(F)F )
Output: -15.69

Task: # get_value(readout='Percent Effect', item= COc1ccc(NC(=O)C(C)(C)C)cc1OCc1cccnc1 )
Output: -1.901

Task: # get_value(readout='Percent Effect', item= CO[C@@H]1CC[C@@H](N(C)C(=O)COc2ccc(F)cc2)[C@H]1O )
Output: -1.969

Task: # get_value(readout='Percent Effect', item= COCC1CN(C(=O)c2cccn2C)Cc2cnn(C)c21 (stereo unspecified) )
Output: 3.786

Task: # get_value(readout='Percent Effect', item= CCc1ncc2c(n1)CN(C(=O)CC(C)NC(C)=O)C2 (stereo unspecified) )
Output: -5.882

Task: # get_value(readout='Percent Effect', item= CC(NC(=O)COc1ccccc1C(=O)O)c1ccc(F)cc1 (stereo unspecified) )
Output: -21.32

Task: # get_value(readout='Percent Effect', item= CN(CC1Cc2ccccc2CN1C)C(=O)CSc1nccn1C (stereo unspecified) )
Output: -6.855

Task: # get_value(readout='Percent Effect', item= CN(C(=O)COc1ccc(F)cc1)[C@@H]1CC[C@@H](n2ccnc2)[C@@H]1O )
Output: 128.1

Task: # get_value(readout='Percent Effect', item= CCOCC1CN(C(=O)c2cccc(C)n2)Cc2cnn(C)c21 (stereo unspecified) )
Output: 129.5

Task: # get_value(readout='Percent Effect', item= O=C(Nc1cc(C2CCOCC2)[nH]n1)c1ccc(Cl)cn1 )
Output: -26.34

Task: # get_value(readout='Percent Effect', item= COc1ccccc1CC(=O)NC(CC(=O)O)c1ccc(F)cc1 (stereo unspecified) )
Output: 7.485

Task: # get_value(readout='Percent Effect', item= COc1cccc(CN2CCCC2c2c(C)nn(C)c2C)c1 (stereo unspecified) )
Output: 0.6284

Task: # get_value(readout='Percent Effect', item= CN(C(=O)COc1ccc(F)cc1)[C@@H]1CS(=O)(=O)C[C@H]1O )
Output: 1.163

Task: # get_value(readout='Percent Effect', item= O=c1n(Cc2ccccn2)nc(C2CCNCC2)n1Cc1ccccc1 )
Output: -4.835

Task: # get_value(readout='Percent Effect', item= COc1coc(C(=O)Nc2nc(C)cs2)cc1=O )
Output: 134.8

Task: # get_value(readout='Percent Effect', item= CCc1nc(N)nc(N2CCCC3(CN(C)C(=O)O3)C2)c1C (stereo unspecified) )
Output: -2.167

Task: # get_value(readout='Percent Effect', item= Cc1ccnc(NC(=O)c2ccc(Cl)o2)c1 )
Output: -0.2777

Task: # get_value(readout='Percent Effect', item= COc1coc(C(=O)Nc2nc(-c3cccnc3)cs2)cc1=O )
Output: 125.3

Task: # get_value(readout='Percent Effect', item= Cl.O=C(Nc1ccccn1)c1cncc(C2CCNCC2)n1 )
Output: 82.75

Task: # get_value(readout='Percent Effect', item= Cc1n[nH]c(CN2CCN(c3ncnc4scc(C)c34)CC2)c1Cl )
Output: -1.697

Task: # get_value(readout='Percent Effect', item= Cn1ccc(C(=O)Nc2nc(-c3ccc4c(c3)CCO4)cs2)cc1=O )
Output: -8.772

Task: # get_value(readout='Percent Effect', item= Cc1cccc(OCCC(=O)N2CCN(S(=O)(=O)N(C)C)CC2)c1C )
Output: -2.723

Task: # get_value(readout='Percent Effect', item= CCN1CC2(CC1=O)CN(Cc1ccco1)CCN(C(=O)N(C)C)C2.O=C(O)C(F)(F)F (stereo unspecified) )
Output: 1.855

Task: # get_value(readout='Percent Effect', item= O=C(Nc1ccc(Cl)cn1)c1cncc(C2CCNCC2)n1 )
Output: 119.3

Task: # get_value(readout='Percent Effect', item= Cc1csc(NC(=O)C2CSCCC(=O)N2)n1 (stereo unspecified) )
Output: -7.391

Task: # get_value(readout='Percent Effect', item= CC(=O)N1CCN(Cc2ccco2)CC2(CC(=O)N(C)C2)C1.O=C(O)C(F)(F)F (stereo unspecified) )
Output: 97.89

Task: # get_value(readout='Percent Effect', item= CC(C)NC(=O)c1n[nH]c(-n2cnnc2)n1 )
Output: -2.794

Task: # get_value(readout='Percent Effect', item= CC(=O)NCC(=O)N1Cc2ccnn2CC(COCCN(C)C)C1 (stereo unspecified) )
Output: -1.622

Task: # get_value(readout='Percent Effect', item= CCN(CC(=O)NC)S(=O)(=O)N1CCCCCC1 )
Output: -4.569

Task: # get_value(readout='Percent Effect', item= COc1coc(C(=O)Nc2nc(-c3ccncc3)cs2)cc1=O )
Output: 126.8

Task: # get_value(readout='Percent Effect', item= CC(=O)Nc1nc(C(=O)NC(C)c2ccncc2)cs1 (stereo unspecified) )
Output: -2.068

Task: # get_value(readout='Percent Effect', item= CCN1CC2(CC1=O)CN(Cc1cnn(C)c1)CCN(C(=O)C(C)C)C2.O=C(O)C(F)(F)F (stereo unspecified) )
Output: -2.77

Task: # get_value(readout='Percent Effect', item= Cc1ccnc(NC(=O)c2cncc(C3CCNCC3)n2)c1 )
Output: 117.9

Task: # get_value(readout='Percent Effect', item= Cn1nc(CNC(=O)NCc2ccc(Cl)cc2)c2c1CCOC2 )
Output: -8.693

Task: # get_value(readout='Percent Effect', item= Cc1csc(N(C)C(=O)C2CC(=O)N(c3ccccc3F)C2)n1 (stereo unspecified) )
Output: 1.281

Task: # get_value(readout='Percent Effect', item= O=C(O)C(F)(F)F.O=C(O)C(F)(F)F.O=C(O)C(F)(F)F.c1coc(CN2CCC3(CC2)COCCN(CCN2CCCC2)C3)c1 )
Output: 10.77

Task: # get_value(readout='Percent Effect', item= Cc1ccccc1C(O)CNS(=O)(=O)Cc1cccc(C#N)c1 (stereo unspecified) )
Output: 1.082

Task: # get_value(readout='Percent Effect', item= CN1CC2(CCN(C(=O)Cc3ccccn3)CC2)OCC1=O.O=C(O)C(F)(F)F )
Output: 23.75

Task: # get_value(readout='Percent Effect', item= COc1ccccc1Oc1ncccc1CNC(=O)CN1CCCC1=O )
Output: -22.72
